src = patent US9346761B2

Readings of IC50 for the listed compounds
# target-under-test: Human CARM1 (PRMT4) (Homo sapiens, UniProt Q86X55)
# Sequence (Q86X55 with tags, fused parts or gaps isoform Q86X55-1): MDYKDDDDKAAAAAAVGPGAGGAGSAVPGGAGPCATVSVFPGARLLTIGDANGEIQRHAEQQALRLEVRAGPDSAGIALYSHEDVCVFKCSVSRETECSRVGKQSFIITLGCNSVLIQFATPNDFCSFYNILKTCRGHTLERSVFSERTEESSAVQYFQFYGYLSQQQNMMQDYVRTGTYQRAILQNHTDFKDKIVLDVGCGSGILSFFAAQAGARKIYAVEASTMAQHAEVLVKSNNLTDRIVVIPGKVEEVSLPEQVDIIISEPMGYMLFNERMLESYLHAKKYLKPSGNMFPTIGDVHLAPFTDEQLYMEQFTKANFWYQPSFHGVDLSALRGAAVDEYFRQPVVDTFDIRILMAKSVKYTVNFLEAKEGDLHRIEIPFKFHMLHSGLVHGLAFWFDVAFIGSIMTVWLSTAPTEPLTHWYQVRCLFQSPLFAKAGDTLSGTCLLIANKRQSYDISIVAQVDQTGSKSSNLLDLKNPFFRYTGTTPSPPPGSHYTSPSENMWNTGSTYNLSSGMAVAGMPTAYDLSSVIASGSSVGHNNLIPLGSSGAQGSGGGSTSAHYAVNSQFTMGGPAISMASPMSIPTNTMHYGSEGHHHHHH

compound	IC50
COc1ccccc1-c1n[nH]cc1CN(C)CCN [Compound 109]	3010 to 10000 nM
CNCCN(C)Cc1c[nH]nc1-c1ccc(CO)cc1 [Compound 28]	101 to 1000 nM
CNCCN(C)Cc1c[nH]nc1-c1cc(Cl)ccc1OC [Compound 53]	> 10000 nM
CCCN(CCN)Cc1c[nH]nc1-c1ccc(F)cc1 [Compound 63]	> 10000 nM
C=CCn1ncc(CN(C)CCNC)c1-c1ccc(OC(C)C)cc1 [Compound 219]	101 to 1000 nM
CNCCN(C)Cc1cnn(CC2CCOCC2)c1-c1ccc(F)cc1 [Compound 12]	3010 to 10000 nM
CN(CCN)Cc1c[nH]nc1-c1ccc(C(F)(F)F)cc1C(F)(F)F [Compound 85]	> 10000 nM
CN(CCN)Cc1c[nH]nc1-c1ccc(C2CCOCC2)cc1 [Compound 98]	101 to 1000 nM
CNCCN(C)Cc1c[nH]nc1-c1cccc(N)c1 [Compound 32]	1010 to 3000 nM
CN(CCN)Cc1c[nH]nc1-c1cc(F)cc(F)c1 [Compound 111]	101 to 1000 nM

====

Readings of pIC50 for the listed molecules
# target-under-test: Full-length human PRMT1 isoform 1 (Homo sapiens)
# Construct: GST-tagged PRMT1; made in house; host or cells: High Five insect cells (baculovirus, pFastBacI)
# Sequence (Q99873 with tags, fused parts or gaps): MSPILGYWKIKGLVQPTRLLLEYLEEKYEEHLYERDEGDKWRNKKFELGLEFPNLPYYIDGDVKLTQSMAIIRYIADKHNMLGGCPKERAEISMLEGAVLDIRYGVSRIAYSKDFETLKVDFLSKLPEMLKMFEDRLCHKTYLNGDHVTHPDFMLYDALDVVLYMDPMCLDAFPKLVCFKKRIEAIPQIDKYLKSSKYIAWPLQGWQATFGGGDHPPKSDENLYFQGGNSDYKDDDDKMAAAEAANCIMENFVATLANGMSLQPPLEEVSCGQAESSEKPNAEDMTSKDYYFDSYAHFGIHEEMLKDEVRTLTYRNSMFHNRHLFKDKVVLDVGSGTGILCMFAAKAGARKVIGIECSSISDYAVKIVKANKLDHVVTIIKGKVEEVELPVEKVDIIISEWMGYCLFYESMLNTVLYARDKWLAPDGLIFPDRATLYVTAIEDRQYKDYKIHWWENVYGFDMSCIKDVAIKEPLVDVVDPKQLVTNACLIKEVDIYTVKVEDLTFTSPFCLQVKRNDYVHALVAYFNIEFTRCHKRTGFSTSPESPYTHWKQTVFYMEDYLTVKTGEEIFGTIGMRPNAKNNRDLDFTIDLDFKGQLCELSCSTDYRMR
# method-notes: PRMT1 biochemical assay (3H-SAM Flashplate, peptide substrate)
pIC50: −log10 of the molar value.

molecule	pIC50
Cc1c(F)cccc1-c1n[nH]cc1CN(C)CCN	6.00 to 7.00
COc1cc(F)ccc1-c1n[nH]cc1CN(C)CCN	6.00 to 7.00
CN(CCN)Cc1c[nH]nc1-c1ccc(F)cc1F	> 7.00
CCNCCN(C)Cc1c[nH]nc1-c1ccc(F)cc1	6.00 to 7.00
CNCCN(C)Cc1cn(CC(=O)O)nc1-c1ccc(OC(C)C)cc1	6.00 to 7.00
CC(O)c1ccc(-c2n[nH]cc2CN(C)CCN)cc1 (stereo not shown)	> 7.00
COCCCOc1ccc(-c2n[nH]cc2CN(C)CCN)cc1	> 7.00
CNCCN(C)Cc1n[nH]cc1-c1ccc(Oc2ccccc2)cc1	> 7.00
CNCCN(C)Cc1c[nH]nc1-c1ccc(C)cc1C	6.00 to 7.00
CN(CCN)Cc1c[nH]nc1-c1ccc(Oc2ccccc2F)cc1	> 7.00

====

Readings of IC50 for the listed compounds
# target-under-test: Human CARM1 (PRMT4) (Homo sapiens)

compound	target-under-test	IC50
COc1ccc(-c2n[nH]cc2CN(C)CCN)c(Cl)c1	Human CARM1 (PRMT4) (Homo sapiens)	3.01 to 10 µM
CNCCN(C)Cc1c[nH]nc1-c1ccc2ccccc2c1	Human CARM1 (PRMT4) (Homo sapiens)	0.101 to 1 µM
CNCCN(C)Cc1cn(CC2CCOCC2)nc1-c1ccc(F)cc1	Human CARM1 (PRMT4) (Homo sapiens)	> 10 µM
CNCCN(C)Cc1c[nH]nc1-c1ccc(C)cc1C	Human CARM1 (PRMT4) (Homo sapiens)	3.01 to 10 µM
CN(CCN)Cc1c[nH]nc1-c1ccc(Cl)cc1F	Human CARM1 (PRMT4) (Homo sapiens)	1.01 to 3 µM
COc1cc(F)ccc1-c1n[nH]cc1CN(C)CCN	Human CARM1 (PRMT4) (Homo sapiens)	3.01 to 10 µM
CNCCN(C)Cc1cnn(CCCC(O)CO)c1-c1ccc(F)cc1 (centres unmarked)	Human CARM1 (PRMT4) (Homo sapiens)	1.01 to 3 µM
CN(CCN)Cc1c[nH]nc1-c1ccc(Cl)cc1	Human CARM1 (PRMT4) (Homo sapiens)	0.101 to 1 µM
COCCn1cc(CN(C)CCN(C)C)c(-c2ccc(F)cc2)n1	Human CARM1 (PRMT4) (Homo sapiens)	> 10 µM
CN(CCN)Cc1c[nH]nc1-c1ccc(C(F)(F)F)cc1F	Human CARM1 (PRMT4) (Homo sapiens)	> 10 µM
CNCCN(C)Cc1c[nH]nc1-c1cccc(C(C)=O)c1	Human CARM1 (PRMT4) (Homo sapiens)	1.01 to 3 µM
Cc1ccc(F)cc1-c1n[nH]cc1CN(C)CCN	Human CARM1 (PRMT4) (Homo sapiens)	> 10 µM
CNCCN(C)Cc1c[nH]nc1-c1ccc(N)cc1	Human CARM1 (PRMT4) (Homo sapiens)	1.01 to 3 µM
CN(CCN)Cc1c[nH]nc1-c1ccc(C(F)(F)F)c(F)c1	Human CARM1 (PRMT4) (Homo sapiens)	1.01 to 3 µM
CN(CCN)Cc1cnn(CCO)c1-c1ccc(F)cc1	Human CARM1 (PRMT4) (Homo sapiens)	3.01 to 10 µM
Cc1ccccc1-c1n[nH]cc1CN(C)CCN	Human CARM1 (PRMT4) (Homo sapiens)	3.01 to 10 µM
CN(CCN)Cc1c[nH]nc1-c1ccc(C2CC2)cc1	Human CARM1 (PRMT4) (Homo sapiens)	1.01 to 3 µM
CN(CCN)Cc1cn(C2COC2)nc1-c1ccc(F)cc1	Human CARM1 (PRMT4) (Homo sapiens)	3.01 to 10 µM
COc1ccc(-c2n[nH]cc2CN(C)CCN)c(C)c1	Human CARM1 (PRMT4) (Homo sapiens)	> 10 µM
CCOC(=O)c1cccc(-c2n[nH]cc2CN(C)CCN)c1	Human CARM1 (PRMT4) (Homo sapiens)	1.01 to 3 µM
CN(CCN)Cc1c[nH]nc1-c1ccc(C(F)(F)F)c(Cl)c1	Human CARM1 (PRMT4) (Homo sapiens)	0.101 to 1 µM
Cc1ccc(-c2n[nH]cc2CN(C)CCN)cc1	Human CARM1 (PRMT4) (Homo sapiens)	0.101 to 1 µM
CC(O)c1ccc(-c2n[nH]cc2CN(C)CCN)cc1 (centres unmarked)	Human CARM1 (PRMT4) (Homo sapiens)	3.01 to 10 µM
CN(CCN)Cc1c[nH]nc1-c1ccc(F)c(Cl)c1	Human CARM1 (PRMT4) (Homo sapiens)	0.101 to 1 µM
CNCCN(C)Cc1c[nH]nc1-c1c(OC)cccc1OC	Human CARM1 (PRMT4) (Homo sapiens)	> 10 µM
CN(CCN)Cc1cnn(CC(O)CO)c1-c1ccc(F)cc1 (centres unmarked)	Human CARM1 (PRMT4) (Homo sapiens)	> 10 µM
COCCn1cc(CN(C)CCN)c(-c2ccc(F)cc2)n1	Human CARM1 (PRMT4) (Homo sapiens)	> 10 µM
CNCCN(C)Cc1c[nH]nc1-c1ccc(C(=O)c2ccccc2)cc1	Human CARM1 (PRMT4) (Homo sapiens)	< 0.1 µM
COc1ccc(-c2n[nH]cc2CN(C)CCN)cc1Cl	Human CARM1 (PRMT4) (Homo sapiens)	1.01 to 3 µM
Cc1ccc(-c2n[nH]cc2CN(C)CCN)c(F)c1	Human CARM1 (PRMT4) (Homo sapiens)	1.01 to 3 µM
CNCCN(C)Cc1c[nH]nc1-c1ccccc1O	Human CARM1 (PRMT4) (Homo sapiens)	> 10 µM
CCn1ncc(CN(C)CCNC)c1-c1ccc(F)cc1	Human CARM1 (PRMT4) (Homo sapiens)	1.01 to 3 µM

====

// pIC50 collected for UniProt Q96LA8
Sequence (Q96LA8 with tags, fused parts or gaps): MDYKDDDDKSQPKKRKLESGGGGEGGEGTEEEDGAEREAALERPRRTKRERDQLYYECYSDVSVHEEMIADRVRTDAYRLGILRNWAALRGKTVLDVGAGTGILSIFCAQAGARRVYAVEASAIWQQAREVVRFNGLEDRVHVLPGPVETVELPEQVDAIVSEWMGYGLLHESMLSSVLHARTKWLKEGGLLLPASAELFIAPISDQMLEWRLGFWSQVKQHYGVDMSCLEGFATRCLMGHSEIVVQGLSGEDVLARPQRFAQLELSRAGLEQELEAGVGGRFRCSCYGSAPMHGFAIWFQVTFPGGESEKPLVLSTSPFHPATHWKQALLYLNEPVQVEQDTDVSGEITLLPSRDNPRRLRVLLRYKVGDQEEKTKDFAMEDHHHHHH
pIC50: −log10 of the molar value.

input-smiles	pIC50
CCN(C)C(=O)c1ccc(-c2n[nH]cc2CN(C)CCN)cc1	> 7.00
CN(CCN)Cc1c[nH]nc1-c1ccc(OCC(F)(F)F)cc1	> 7.00
CN(CCN)Cc1n[nH]cc1-c1ccc(F)cc1	> 7.00
Cc1cc(Cl)ccc1-c1n[nH]cc1CN(C)CCN	> 7.00
CN(CCN)Cc1c[nH]nc1-c1ccc(OC2CCOCC2)cc1	> 7.00
CNCCN(C)Cc1c[nH]nc1-c1cccc(OC(F)(F)F)c1	> 7.00
CNCCN(C)Cc1c[nH]nc1-c1ccc(Oc2ccccc2C(=O)NC)cc1	> 7.00
CN(CCN)Cc1c[nH]nc1-c1ccc(C2CCOCC2)cc1	> 7.00
CNCCN(C)Cc1c[nH]nc1-c1ccc(Oc2cccc(C(C)C)c2)cc1	> 7.00
CCOc1ccc(-c2n[nH]cc2CN(C)CCN)cc1	> 7.00
CNCCN(C)Cc1n[nH]cc1-c1ccc(Oc2ccccc2)c(C(=O)N(C)C)c1	> 7.00
CN(CCN)Cc1c[nH]nc1-c1ccc(C(F)(F)F)c(F)c1	> 7.00
CN(CCN)Cc1c[nH]nc1-c1ccc(F)cc1F	> 7.00
CCn1cc(CN(C)CCNC)c(-c2ccc(OC(C)C)cc2)n1	> 7.00
CCn1ncc(CN(C)CCNC)c1-c1ccc(OC(C)C)cc1	6.00 to 7.00
CNCCN(C)Cc1c[nH]nc1-c1ccc(C(=O)c2ccccc2)cc1	> 7.00
Cc1ccc(-c2n[nH]cc2CN(C)CCN)c(C)c1	> 7.00
CNCCN(C)Cc1cn[nH]c1-c1ccc(C#N)cc1	> 7.00
CNCCN(C)Cc1c[nH]nc1-c1cccc(C#N)c1	> 7.00
CN(CCN)Cc1n[nH]cc1-c1ccc(C2CC2)cc1	> 7.00
CCC(=O)N1CCN(c2ccc(-c3n[nH]cc3CN(C)CCN)cc2)CC1	> 7.00
CNCCN(C)Cc1c[nH]nc1-c1ccccc1OC(F)(F)F	6.00 to 7.00
CCN(CC)C(=O)c1ccc(-c2n[nH]cc2CN(C)CCN)cc1	6.00 to 7.00
CN(CCN)Cc1c[nH]nc1-c1ccc(C2CC2)cc1	> 7.00
COc1ccc(F)cc1-c1n[nH]cc1CN(C)CCN	6.00 to 7.00
CNCCN(C)Cc1c[nH]nc1-c1cccc(OC)c1	> 7.00
CC(C)CC(=O)N1CCN(c2ccc(-c3n[nH]cc3CN(C)CCN)cc2)CC1	> 7.00
CNCCN(C)Cc1c[nH]nc1-c1cc(Cl)c(OC(C)C)c(Cl)c1	> 7.00
CNCCN(C)Cc1c[nH]nc1-c1cc(OC(C)C)cc(C(C)C)c1	6.00 to 7.00
Cc1ccc(-c2n[nH]cc2CN(C)CCN)c(F)c1	> 7.00
CNCCN(C)Cc1n[nH]cc1-c1ccc(Oc2cccc(C(C)C)c2)cc1	> 7.00
CN(CCN)Cc1c[nH]nc1-c1ccc2c(c1)NC(=O)CO2	> 7.00
CCOC(=O)c1cccc(-c2n[nH]cc2CN(C)CCN)c1	> 7.00
CNCCN(C)Cc1c[nH]nc1-c1ccc(Oc2ccccc2)c(C(=O)NC)c1	> 7.00
CNCCN(C)Cc1n[nH]cc1-c1ccc(Oc2cccc(C(=O)N(C)C)c2)cc1	> 7.00
COCCOc1ccc(-c2n[nH]cc2CN(C)CCN)cc1	> 7.00
CN(CCN)Cc1c[nH]nc1-c1ccc(C(C)(C)C)cc1	> 7.00
CNCCN(C)Cc1cnn(C)c1-c1ccc(OC(C)C)c(Cl)c1	> 7.00
CNCCN(C)Cc1c[nH]nc1-c1ccc(F)cc1F	> 7.00
